Reference source for all entries: PubChem BioAssay AID1508591

Conditions: rat; liver microsomes; pH 7.4; 15.0 min; 1.0 µM
Overview of reported half-life across a group of molecules:
quantity: half-life

molecule: c1cn2cc(-c3ccc4cn[nH]c4c3)nc(Nc3ccc(N4CCOCC4)cc3)c2n1
quantity: half-life
recorded value: 24.9 min
--
molecule: CCS(=O)(=O)N1CC(CC#N)(n2cc(-c3ncnc4[nH]ccc34)cn2)C1
quantity: half-life
recorded value: > 30 min
--
molecule: CCNC(=O)c1ccc(-c2ccc3ncnc(NCC4CCCO4)c3c2)o1 (stereo not given)
quantity: half-life
recorded value: > 30 min
--
molecule: COc1ccc2c(c1)CN(C(=O)CCN1CCC(Cc3ccccc3)CC1)CCS2
quantity: half-life
recorded value: 2.27 min
--
molecule: CS(=O)(=O)N1CCN(c2nc(-c3ccc(Br)cc3)cs2)CC1
quantity: half-life
recorded value: > 30 min

###

Overview of reported half-life across a group of compounds:
Conditions: rat; liver microsomes; pH 7.4; 15.0 min; 1.0 µM

compound: COC(=O)c1ccc([C@H]2c3[nH]c4ccccc4c3C[C@H](C(=O)OC)N2C(=O)CCl)cc1
unit of measurement: min
inequality symbol: =
half-life: 4.02
//
compound: Cc1cnc(-c2ccccc2C(C)C)nc1NCC1CN(c2cccnc2)C1
unit of measurement: min
inequality symbol: =
half-life: 2.6
//
compound: Cc1ccc(S(=O)(=O)Nc2cnccc2C(=O)Nc2nc(C3CCC3)cs2)cc1
unit of measurement: min
inequality symbol: =
half-life: 5
//
compound: Cc1ccc(S(=O)(=O)Nc2cnccc2C(=O)Nc2nc(-c3cc(Br)cs3)cs2)cc1
unit of measurement: min
inequality symbol: >
half-life: 30
//
compound: CC(C)n1cc(-c2ccc(Oc3ccccc3)cc2)c2c(N)ncnc21
unit of measurement: min
inequality symbol: =
half-life: 18
//
compound: CC(=O)NC1CCN(c2nc(-c3ccc(Br)cc3)cs2)CC1
unit of measurement: min
inequality symbol: >
half-life: 30
//
compound: O=C(Nc1ncc(-c2ccccc2)s1)c1ccc(-c2cccc([N+](=O)[O-])c2)o1
unit of measurement: min
inequality symbol: >
half-life: 30
//
compound: COc1ccc(-c2ccc3ncc(Nc4cccnc4OC)n3n2)cn1
unit of measurement: min
inequality symbol: =
half-life: 10.8
//
compound: COc1ccc2nc(C)cc(Nc3ccc(Cl)c(Cl)c3)c2c1
unit of measurement: min
inequality symbol: =
half-life: 15.5
//
compound: Cc1ccc2nc(NC3=NC(c4[nH]ncc4Cl)C4=C(CCCC4=O)N3)oc2c1 (stereo not given)
unit of measurement: min
inequality symbol: =
half-life: 15.8

###

Overview of reported half-life across a group of molecules:
Details: rat; liver microsomes; pH 7.4; 15.0 min; 1.0 µM

molecule: COCCNc1ncc(-c2cccc(O)c2)c2c1OCC2
unit of measurement: min
half-life: 8.62
//
molecule: COc1cc(C(=O)Nc2nc(-c3ccccc3)cs2)ccc1NS(=O)(=O)c1ccc(C)cc1
unit of measurement: min
half-life: 5.2
//
molecule: Cc1cnc(-c2ccccc2C2CC2)nc1NCc1ccc(-c2cccnc2)cc1
unit of measurement: min
half-life: 6.2
//
molecule: C[C@@H]1[C@@H](CC(C[C@H]2O[C@@H]3O[C@]4(C)CC[C@@H]5[C@H](C)CC[C@@H]([C@H]2C)[C@@]35OO4)C(=O)NCc2ccc(F)cc2)O[C@@H]2O[C@]3(C)CC[C@H]4[C@H](C)CC[C@@H]1[C@@]24OO3 (some centres undefined)
unit of measurement: min
half-life: 2.4

###

Settings: rat; liver microsomes; pH 7.4; 15.0 min; 1.0 µM
Overview of reported half-life across a group of compounds:
quantity: half-life (min)

compound: CC[C@@](C)(Nc1ccnc(-c2c[nH]c3ncccc23)n1)C(=O)NCC(F)(F)F
unit of measurement: min
inequality symbol: =
recorded value: 27.8

compound: O=C(Nc1nc(-c2ccccn2)cs1)c1cccc(S(=O)(=O)N2CCOCC2)c1
unit of measurement: min
inequality symbol: =
recorded value: 8.47

compound: Fc1ccc(Nc2nccc(-c3ccncc3)n2)cc1F
unit of measurement: min
inequality symbol: =
recorded value: 16

compound: Cc1ccc(S(=O)(=O)NCC(=O)Nc2nc(-c3ccccc3)cs2)cc1
unit of measurement: min
inequality symbol: =
recorded value: 2.1

compound: CSc1nc(N)cc(Oc2ccc(-c3nc(Nc4cccc(C(F)(F)F)c4)n[nH]3)cc2)n1
unit of measurement: min
inequality symbol: =
recorded value: 21.2

compound: COc1ccc(C(=O)N2CCCC(c3nn(-c4ccc(OC)cc4)c(=O)[nH]3)C2)cc1 (stereo not given)
unit of measurement: min
inequality symbol: >
recorded value: 30

compound: O=C(O)c1ccnc2cc(C(OCCN3CCCCC3)c3ccccc3Cl)[nH]c12 (stereo not given)
unit of measurement: min
inequality symbol: >
recorded value: 30

compound: O=C1Nc2ccccc2/C1=C/c1ccc[nH]1
unit of measurement: min
inequality symbol: =
recorded value: 5.1

compound: COc1cc2c(c(OC)c1OC)-c1ccc(OC)c(=O)cc1[C@@H](NC(C)=O)CC2
unit of measurement: min
inequality symbol: >
recorded value: 30

compound: Cc1ccnc(NC(=O)C2CC(=O)N(c3n[nH]c4cc(Br)ccc34)C2)c1 (stereo not given)
unit of measurement: min
inequality symbol: >
recorded value: 30

###

Conditions: rat; liver microsomes; pH 7.4; 15.0 min; 1.0 µM
quantity: log10(half-life) (log10 of the value in min)

structure as smiles: CC1=Nc2cc(C(=O)NC3CCCC3)ccc2Sc2ccc(C)cc21
quantity: log10(half-life)
recorded value: 0.52
--
structure as smiles: NC(=O)C1CCN(c2nc(-c3ccccc3-c3ccccc3)cs2)CC1
quantity: log10(half-life)
recorded value: 0.39
--
structure as smiles: CC(C)C[C@H](NC(=O)[C@H](CCc1ccccc1)NC(=O)CN1CCOCC1)C(=O)N[C@@H](Cc1ccccc1)C(=O)N[C@@H](CC(C)C)C(=O)[C@@]1(C)CO1
quantity: log10(half-life)
recorded value: 0.55
--
structure as smiles: NC(=O)C1CCN(c2nc(-c3ccc(Br)cc3)cs2)CC1
quantity: log10(half-life)
recorded value: 0.31
--
structure as smiles: COc1ccc(OC)c(-c2nc3c(C#N)c[nH]n3c2NC2CCCCC2)c1
quantity: log10(half-life)
recorded value: 0.62
--
structure as smiles: Cc1ccnc(NC(=S)N2CCN(c3cc(F)cc(Cl)c3)CC2)c1
quantity: log10(half-life)
recorded value: 1.32
--
structure as smiles: O=c1c2c([nH]c3ccc(Br)cc13)CCCC2
quantity: log10(half-life)
recorded value: 1.20
--
structure as smiles: Cc1ccc(S(=O)(=O)Nc2cc(Cl)ccc2C(=O)Nc2nc(-c3ccccc3)cs2)cc1
quantity: log10(half-life)
recorded value: 0.88

###

Details: rat; liver microsomes; pH 7.4; 15.0 min; 1.0 µM
quantity: half-life (min)

molecule: Fc1ccc(CN2CCOC[C@H]2c2ncc(-c3ccc(Cl)s3)[nH]2)cc1
quantity: half-life
unit of measurement: min
inequality symbol: =
recorded value: 3.47

molecule: CC(C)(C)c1ccc(-c2csc(N3CCC(C(N)=O)CC3)n2)cc1
quantity: half-life
unit of measurement: min
inequality symbol: =
recorded value: 13.9

molecule: C=C1c2cccc(O)c2C(O)=C2C(=O)[C@]3(O)C(O)=C(C(N)=O)C(=O)[C@@H](N(C)C)[C@@H]3[C@@H](O)[C@H]12
quantity: half-life
unit of measurement: min
inequality symbol: >
recorded value: 30

molecule: O=C1CCCC2=C1C(c1ccncc1Br)N=C(Nc1nc3ccccc3o1)N2 (stereo not given)
quantity: half-life
unit of measurement: min
inequality symbol: =
recorded value: 6.5

molecule: O=C(NC[C@H]1Cn2c(-c3ccc(Cl)cc3)cnc2CO1)C1CCCC1
quantity: half-life
unit of measurement: min
inequality symbol: >
recorded value: 30

molecule: COc1cc2c(cc1-c1c(C)noc1C)ncc1[nH]c(=O)n([C@H](C)c3ccccn3)c12
quantity: half-life
unit of measurement: min
inequality symbol: >
recorded value: 30

molecule: CCN(CC)C(=O)c1ccc(O)c(OC)c1
quantity: half-life
unit of measurement: min
inequality symbol: >
recorded value: 30

molecule: Cn1cc(Nc2cnccc2C(=O)O)c2cccnc21
quantity: half-life
unit of measurement: min
inequality symbol: >
recorded value: 30

molecule: Cc1noc(C)c1Cc1ccc(C(=O)N2CCc3c(nc4cc(-c5ccccc5)[nH]n4c3=O)C2)o1
quantity: half-life
unit of measurement: min
inequality symbol: =
recorded value: 3.38

molecule: CCOc1ccccc1CNS(=O)(=O)c1ccc(-c2cnc(C3CC3)o2)cc1
quantity: half-life
unit of measurement: min
inequality symbol: =
recorded value: 1.64

###

Conditions: rat; liver microsomes; pH 7.4; 15.0 min; 1.0 µM

structure as smiles: Fc1cc(Nc2nc(-c3ccncc3)nc3ccccc23)ccc1-c1cccc(OC(F)(F)F)c1
half-life: > 30 min
--
structure as smiles: O=C(c1ccc2ncccc2c1)N1CCc2c(nc3cc[nH]n3c2=O)C1
half-life: > 30 min
--
structure as smiles: O=c1n(-c2ccc(Cl)cc2)nc2n1CCN(Cc1ccc(C(F)(F)F)cc1)C2
half-life: > 30 min
--
structure as smiles: Cc1ccc2cccc(NC(=O)c3ccc(OC(C)C)cc3)c2n1
half-life: 17.9 min
--
structure as smiles: CCCc1cc(C)[nH]c(=O)c1CNC(=O)c1cc(-c2ccnc(N3CCN(C)CC3)c2)cc2c1cnn2C(C)C
half-life: 27.2 min
--
structure as smiles: Oc1ccc(CNc2ccc(F)cc2F)c2cccnc12
half-life: 3.19 min
--
structure as smiles: Cc1cc(Cl)ccc1COc1ccnn1-c1cc(C(=O)O)ccn1
half-life: > 30 min
--
structure as smiles: CCc1cccc(NC(=O)c2c(C)oc3nc(C)nc(N4CCCC4)c23)c1
half-life: 1.41 min
--
structure as smiles: C=CCc1ccc(O)c(-c2ccc(O)c(CC=C)c2)c1
half-life: 2.36 min
--
structure as smiles: CCN(CCO)CCCOc1ccc2c(Nc3cc(CC(=O)Nc4cccc(F)c4)[nH]n3)ncnc2c1
half-life: 1.88 min
